Value source: patent US20070191413A1

- STUDY_TARGET: PDE4B2 (Homo sapiens)
- Construct: made in house; host or cells: SF21 insect cells (baculovirus; virus prepared in SF9 cells)
- Sequence (Q07343 1-564 isoform Q07343-2): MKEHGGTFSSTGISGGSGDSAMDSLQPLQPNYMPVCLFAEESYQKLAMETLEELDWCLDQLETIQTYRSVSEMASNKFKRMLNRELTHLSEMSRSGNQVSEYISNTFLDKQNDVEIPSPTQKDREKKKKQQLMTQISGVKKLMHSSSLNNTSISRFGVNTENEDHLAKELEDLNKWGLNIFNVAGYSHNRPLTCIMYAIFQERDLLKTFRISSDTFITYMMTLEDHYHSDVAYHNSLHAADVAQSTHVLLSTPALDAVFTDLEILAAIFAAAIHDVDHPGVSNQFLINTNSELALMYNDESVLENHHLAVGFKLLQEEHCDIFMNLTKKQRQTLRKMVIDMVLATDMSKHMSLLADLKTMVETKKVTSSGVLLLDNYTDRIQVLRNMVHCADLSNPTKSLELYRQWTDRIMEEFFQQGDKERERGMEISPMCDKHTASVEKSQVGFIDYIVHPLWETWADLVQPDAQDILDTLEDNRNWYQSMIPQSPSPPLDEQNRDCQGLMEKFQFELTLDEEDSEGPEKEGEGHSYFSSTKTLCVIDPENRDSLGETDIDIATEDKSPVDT
- TEST_SUMMARY: Inhibition of PDE4B2 activity in a modified SPA (scintillation proximity assay) test
- Format: biochemical
- APPLIED_CONDITIONS: recombinant PDE4B2 (SF21 cell supernatant), [3H]cAMP SPA, 0.5 μM cAMP, 37° C.; value given as a range for the group of listed compounds; read-out: Inhibition of the PDE4 activity, −log IC50 (converted)
MEASUREMENT_NAME: IC50

>>> value_measured("CCOc1cc2c(cc1OC)C(c1ccc(-n3ccnc3)cc1)=N[C@@H]1CC[C@@H](O)C[C@H]21 (racemic)")
"0.724 to 7.41 nM"
>>> value_measured("CCOc1cc2c(cc1OC)C(c1ccc(-c3nc(OC)cc(OC)n3)cc1)=N[C@@H]1CC[C@@H](O)C[C@H]21 (racemic)")
"0.724 to 7.41 nM"
>>> value_measured("CCOc1cc2c(cc1OC)C(c1ccc(N3CCN(C)CC3)cc1)=N[C@@H]1CC[C@@H](O)C[C@H]21 (racemic)")
"0.724 to 7.41 nM"
